# EXPERIMENT: Metabolic stability in Beagle dog liver microsomes assessed as compound remaining at 10 umol/L incubated upto 120 mins in presence of NADPH by LC-MS/MS analysis
# Type: ADME, Canis lupus familiaris, Microsome
# CONDITION SUMMARY: dose 10 µmol/L, read-out: Stability
READOUT LABEL: remaining at 2 h, 10 µM (%)
Supply the numeric figure in %, leaving out any unit text.

**Query** Specify reported remaining at 2 h, 10 µM for the compound shown: Cl.c1ccc2c(c1)nnn2CCCCN1CCN(c2nsc3ccccc23)CC1
**Result** 6.04

* * *

# EXPERIMENT: AUC (0 to t) in male Sprague-Dawley rat at 10 mg/kg, po qd treated for 13 weeks consecutively measured after recovery period on day 91 by UP/LC/MS/MS analysis
# Assay type: ADME, organism-based
# CONDITION SUMMARY: in vivo, time 91 day
READOUT LABEL: AUC(0-t) at 2184 h (ng·h/mL)
Number in ng·h/mL, nothing else.

**Query** Look up AUC(0-t) at 2184 h of Cl.c1ccc2c(c1)nnn2CCCCN1CCN(c2nsc3ccccc23)CC1 and report it.
**Result** 112

* * *

# EXPERIMENT: Tmax in female Sprague-Dawley rat at 30 mg/kg, po qd treated for 13 weeks consecutively measured after recovery period on day 91 by UP/LC/MS/MS analysis
# Type: ADME, organism-based
# CONDITION SUMMARY: in vivo, time 91 day
READOUT LABEL: Tmax (h)
Answer in h, number only, no unit symbol.

**Query** Give a short answer stating reported Tmax for Cl.c1ccc2c(c1)nnn2CCCCN1CCN(c2nsc3ccccc23)CC1 .
**Result** 1

* * *

# TARGET DESC: 5-hydroxytryptamine receptor 2A (Homo sapiens)
# EXPERIMENT: Displacement of [3H]Ketanserin from recombinant human 5-HT2A receptor extracted from CHO cell membrane at 1 nM incubated for 60 mins by radioligand binding assay relative to control
# Format: cell membranes
READOUT LABEL: inhibition (%)
Provide only the numeric value, understood in %.

Observe how each entry below is paired with its result.
CHEMICAL SMILES	TARGET DESC	inhibition / %
Fc1ccc2c(N3CCN(CCCn4cnc5ccccc54)CC3)noc2c1	5-hydroxytryptamine receptor 2A (Homo sapiens)	24.9
Fc1ccc2c(C3CCN(CCCCn4nnc5ccccc54)CC3)noc2c1	5-hydroxytryptamine receptor 2A (Homo sapiens)	39.9
c1ccc2c(c1)ncn2CCCN1CCN(c2nsc3ccccc23)CC1	5-hydroxytryptamine receptor 2A (Homo sapiens)	-1.8
Fc1ccc2c(C3CCN(CCCn4cnc5ccccc54)CC3)noc2c1	5-hydroxytryptamine receptor 2A (Homo sapiens)	15.9
c1ccc2c(c1)nnn2CCCN1CCN(c2nsc3ccccc23)CC1	5-hydroxytryptamine receptor 2A (Homo sapiens)	8.15

Now look at this entry.
**Query** Identify measured inhibition corresponding to c1ccc2c(c1)ncn2CCCCN1CCN(c2nsc3ccccc23)CC1
**Result** 15.4

* * *

# TARGET DESC: Alpha-1A adrenergic receptor (Homo sapiens)
# EXPERIMENT: Displacement of [3H]prazosin from recombinant human alpha 1A adrenoceptor extracted from CHO cell membrane at 1 nM incubated for 60 mins by radioligand binding assay relative to control
# Assay type: cell membranes
# CONDITION SUMMARY: filed as antagonist
The threshold is inclusive: inhibition of exactly 80% counts as satisfied; values below receive not satisfied.

COMPOUND	QUALITATIVE LABEL
Fc1ccc2c(C3CCN(CCCn4cnc5ccccc54)CC3)noc2c1	not satisfied
c1ccc2nn(CCCCN3CCN(c4nsc5ccccc45)CC3)nc2c1	not satisfied
COc1cccc(OC)c1OCCNCC1COc2ccccc2O1 (stereo unspecified)	not satisfied

**Query** Determine whether this compound has inhibition no lower than 80%: Fc1ccc2c(N3CCN(CCCCn4nc5ccccc5n4)CC3)noc2c1
**Result** satisfied

* * *

# TARGET DESC: Alpha-1A adrenergic receptor (Homo sapiens) (UniProt P35348)
# EXPERIMENT: Displacement of [3H]prazosin from recombinant human alpha 1A adrenoceptor extracted from CHO cell membrane at 1 nM incubated for 60 mins by radioligand binding assay relative to control
# Assay type: cell membranes
# CONDITION SUMMARY: filed as antagonist
Rule: inhibition under 70% gives -1, otherwise 1.

CHEMICAL SMILES	QUALITATIVE LABEL
Fc1ccc2c(N3CCN(CCCn4nnc5ccccc54)CC3)noc2c1	-1
Fc1ccc2c(N3CCN(CCCn4cnc5ccccc54)CC3)noc2c1	-1
Fc1ccc2c(C3CCN(CCCCn4nnc5ccccc54)CC3)noc2c1	1
c1ccc2c(c1)nnn2CCCN1CCN(c2nsc3ccccc23)CC1	-1

**Query** Please indicate if the recorded inhibition for Fc1ccc2c(C3CCN(CCCCn4nc5ccccc5n4)CC3)noc2c1 meets or exceeds 70%.
**Result** 1

**Query** Please check the record Fc1ccc2c(N3CCN(CCCCn4nnc5ccccc54)CC3)noc2c1 and state if its inhibition is at or above 70%.
**Result** 1

**Query** Decide: inhibition of c1ccc2c(c1)nnn2OCCCN1CCN(c2nsc3ccccc23)CC1 >= 70%?
**Result** -1

**Query** # check: inhibition of c1ccc2c(c1)nnn2CCCCN1CCN(c2noc3ccccc23)CC1 is greater than or equal to 70%
**Result** 1

**Query** # bool: inhibition of Fc1ccc2c(N3CCN(CCCCn4cnc5ccccc54)CC3)noc2c1 >= 70%
**Result** 1

* * *

# TARGET DESC: 5-hydroxytryptamine receptor 2A (Homo sapiens, UniProt P28223)
# Sequence (P28223 whole entry): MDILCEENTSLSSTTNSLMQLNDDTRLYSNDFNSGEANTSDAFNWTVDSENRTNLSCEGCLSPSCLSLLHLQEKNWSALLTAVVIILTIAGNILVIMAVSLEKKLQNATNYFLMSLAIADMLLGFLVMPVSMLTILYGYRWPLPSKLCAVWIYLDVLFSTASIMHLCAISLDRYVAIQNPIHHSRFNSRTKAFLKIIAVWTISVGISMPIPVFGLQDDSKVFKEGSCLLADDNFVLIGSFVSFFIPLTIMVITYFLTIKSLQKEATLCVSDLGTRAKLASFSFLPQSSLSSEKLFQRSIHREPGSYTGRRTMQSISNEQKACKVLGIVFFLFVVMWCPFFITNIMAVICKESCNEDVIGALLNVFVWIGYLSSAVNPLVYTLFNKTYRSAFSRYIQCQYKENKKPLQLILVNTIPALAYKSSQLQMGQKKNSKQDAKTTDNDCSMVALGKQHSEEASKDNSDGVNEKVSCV
# EXPERIMENT: Displacement of [3H]Ketanserin from recombinant human 5-HT2A receptor extracted from CHO cell membrane at 100 nM incubated for 60 mins by radioligand binding assay relative to control
# Type: cell membranes
READOUT LABEL: inhibition (%)
Answer in %, number only, no unit symbol.

CHEMICAL SMILES	READOUT LABEL	OBSERVED RESULT
Fc1cccc(N2CCN(CCCCn3cnc4ccccc43)CC2)c1	inhibition	1.87
c1ccc(N2CCN(CCCCn3nnc4ccccc43)CC2)cc1	inhibition	39.2
Fc1ccc2ncn(CCCCN3CCN(c4cccc(C(F)(F)F)c4)CC3)c2c1	inhibition	26.1

**Query** Give inhibition for FC(F)(F)c1cccc(N2CCN(CCn3nnc4ccccc43)CC2)c1
**Result** 18.9

**Query** Please report the measured inhibition for FC(F)(F)c1cccc(N2CCN(CCCCCCn3nc4ccccc4n3)CC2)c1
**Result** 9.94

**Query** Identify the reported inhibition for the following entry. COc1cccc(N2CCN(CCCCn3cnc4ccccc43)CC2)c1
**Result** 13.1

* * *

# EXPERIMENT: Tmax in Sprague-Dawley rat at 1 mg/kg, iv measured for 24 hrs by UPLC/MS/MS analysis
# Assay type: ADME, organism-based
# CONDITION SUMMARY: in vivo
READOUT LABEL: Tmax (min)
Lab book: enter the figure in min, no units written.

**Query** Report Tmax, nothing else, for this compound: Cl.c1ccc2c(c1)nnn2CCCCN1CCN(c2nsc3ccccc23)CC1
**Result** 15

* * *

Measured inhibition accompanies every entry in the list below.
# TARGET DESC: UniProt:P35348
# Sequence (whole entry): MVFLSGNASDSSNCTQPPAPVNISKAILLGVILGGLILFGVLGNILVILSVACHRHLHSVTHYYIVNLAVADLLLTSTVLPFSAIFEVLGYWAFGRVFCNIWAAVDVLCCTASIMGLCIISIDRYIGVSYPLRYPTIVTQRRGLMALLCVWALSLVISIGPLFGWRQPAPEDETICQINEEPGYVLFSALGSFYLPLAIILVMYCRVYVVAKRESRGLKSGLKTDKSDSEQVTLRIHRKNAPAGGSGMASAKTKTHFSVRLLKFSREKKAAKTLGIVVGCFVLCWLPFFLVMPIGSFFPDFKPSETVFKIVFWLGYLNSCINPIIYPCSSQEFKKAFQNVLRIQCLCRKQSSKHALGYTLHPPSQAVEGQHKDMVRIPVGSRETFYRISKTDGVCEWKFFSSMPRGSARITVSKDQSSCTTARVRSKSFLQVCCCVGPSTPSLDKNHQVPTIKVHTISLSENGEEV
# EXPERIMENT: Displacement of [3H]prazosin from recombinant human alpha 1A adrenoceptor extracted from CHO cell membrane at 100 nM incubated for 60 mins by radioligand binding assay relative to control
# Type: cell membranes
# CONDITION SUMMARY: filed as antagonist
Answer format: numeric, % implied, no suffix.

As a guide, the following entries are already answered.
COMPOUND	OBSERVED RESULT
c1ccc2c(c1)nnn2CCCN1CCN(c2nsc3ccccc23)CC1	96.4
FC(F)(F)c1cccc(N2CCN(CCCCCCn3nnc4ccccc43)CC2)c1	63.3
c1ccc(N2CCN(CCCCn3nnc4ccccc43)CC2)cc1	79.6

**Query** Answer with the recorded inhibition of FC(F)(F)c1cccc(N2CCN(CCCn3nnc4ccccc43)CC2)c1 only.
**Result** 61.3

**Query** Give the reported inhibition for this compound. Clc1cccc(N2CCN(CCCCn3cnc4ccccc43)CC2)c1Cl
**Result** 78

**Query** Provide inhibition value for the following compound: c1ccc2c(c1)ncn2CCCCN1CCN(c2nsc3ccccc23)CC1
**Result** 99.8

**Query** Return reported inhibition. Input compound: FC(F)(F)c1cccc(N2CCN(CCCCn3nnc4ccccc43)CC2)c1
**Result** 72.5

**Query** Provide one value: measured inhibition of Fc1ccc2c(N3CCN(CCCn4nc5ccccc5n4)CC3)noc2c1
**Result** 99.1

**Query** Give a short answer stating reported inhibition for COc1cccc(OC)c1OCCNCC1COc2ccccc2O1 (stereo not drawn) .
**Result** 102

**Query** Identify inhibition associated with the compound Fc1cccc(N2CCN(CCCCn3nnc4ccccc43)CC2)c1
**Result** 91

**Query** Name the recorded inhibition of the compound listed here: COc1ccccc1N1CCN(CCCOc2cccc(C)c2C)CC1
**Result** 40.1

**Query** Output inhibition of Fc1cccc(N2CCN(CCCCn3cnc4ccccc43)CC2)c1
**Result** 80.1

**Query** Tell me its inhibition given Fc1ccc2c(N3CCN(CCCn4nnc5ccccc54)CC3)noc2c1 as the entry.
**Result** 95.3

**Query** Recall and state the measured inhibition for c1ccc2nn(CCCCN3CCN(c4noc5ccccc45)CC3)nc2c1 .
**Result** 99

**Query** Report inhibition for Fc1ccc2c(N3CCN(CCCCn4cnc5ccccc54)CC3)noc2c1
**Result** 101

**Query** Please give the documented inhibition of FC(F)(F)c1cccc(N2CCN(CCCCCn3nnc4ccccc43)CC2)c1
**Result** 75.3

**Query** Return the recorded inhibition value; entry: Fc1ccc2c(C3CCN(CCCCn4cnc5ccccc54)CC3)noc2c1
**Result** 100

**Query** Report inhibition, nothing else, for this compound: c1ccc2nn(CCCCN3CCN(c4nsc5ccccc45)CC3)nc2c1
**Result** 100

**Query** Please give measured inhibition of the following entry: c1ccc2c(c1)nnn2OCCCN1CCN(c2nsc3ccccc23)CC1
**Result** 93.7

**Query** Please look at this compound and report its inhibition: Cc1nc2ccccc2n1CCCCN1CCN(c2cccc(C(F)(F)F)c2)CC1
**Result** 98.9

**Query** Report inhibition, nothing else, for this compound: Fc1ccc2c(C3CCN(CCCn4nnc5ccccc54)CC3)noc2c1
**Result** 98.8

**Query** Recall and state the measured inhibition for Fc1ccc2ncn(CCCCN3CCN(c4cccc(C(F)(F)F)c4)CC3)c2c1 .
**Result** 79.7

**Query** Supply measured inhibition of c1ccc2c(c1)nnn2CCCCN1CCN(c2noc3ccccc23)CC1 in your reply.
**Result** 100
